- method: Functional metabolic assay to measure dose dependent changes in cell viability from drug treatment in Vero E6/TMPRSS2 cells. Cells are treated with antiviral candidates that have been serially diluted. Cytotoxicity is reported via measuring absorbance and analysis of MTT/MTS assays in uninfected cells. The assay has been performed by Icahn School of Medicine at Mount Sinai.
- Type: toxicity, cell-based, VeroE6/TMPRSS2
- settings: chlorocebus sabaeus, Vero E6/TMPRSS2 cells
attribute_measured: CC50 (µM)
Just the number in µM, nothing appended.

### Prompt Any idea what its CC50 is? The compound is "O=C(Nc1cc(Cl)cc(C(=O)Nc2ccc3c(c2)CNC3)c1)OCc1ccccc1"
### Response 16.6

### Prompt Give the measured CC50 of "NCCCc1cccc(NC(=O)c2cc(Cl)cc(NC(=O)OCc3ccccc3)c2)n1" .
### Response 6.18

### Prompt I am curious: what CC50 value has been reported for "NCCc1cccc(NC(=O)[C@H]2[C@H]3CCCCC[C@H]3[C@H]2NC(=O)OCc2ccccc2)c1" ?
### Response 1.78

### Prompt Would you kindly share the measured CC50 for "NCc1cccc(C(=O)Nc2cc(Cl)cc(NC(=O)OCc3ccccc3)c2)c1" ?
### Response 6.67

### Prompt Reported CC50 for "Cc1cc(-c2ccc([C@@H](NC(=O)OCc3ccccc3)C(=O)Nc3cccc(CN)c3)cc2)cs1" : what is it?
### Response 6.25

### Prompt Please report the recorded CC50 for "CCc1cc(C(=O)Nc2cccc(CN)c2)sc1-c1ccc(Cl)cc1" .
### Response 13.9

### Prompt Please give the measured CC50 for this compound: "Cc1ccc(NC(=O)c2cc(Cl)cc(NC(=O)OCc3ccccc3)c2)cc1CN"
### Response 6.64

### Prompt Please look up its CC50: "Cc1cc(CN)cc(NC(=O)c2cc(Cl)cc(NC(=O)OCc3ccccc3)c2)c1"
### Response 7.97
